experimentalTarget: T1, corticotropin-releasing hormone (CRH) peptide (human and mouse, not fully specified)
T1 peptide: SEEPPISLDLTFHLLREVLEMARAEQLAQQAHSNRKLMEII
experimentalProtocol: cell-based or functional assay
Recorded hCRHR1 Reporter IC50, one value per entry.
propertyMeasured: hCRHR1 Reporter IC50

binder="PR006669 (antibody, human IgG1, kappa, V domains shown) VH: EVQLVESGGGLVQPGGSLRLSCAASGFTFSDNWMSWVRQAPGKGLEWVANIKQDGSENYYVDSVKGRFTISRDNAKNSLYLQMNSLRAEDTAVYYCSRGLALWGWGQGTLVTVSS VL: DIVMTHSPLSLPVTPGDPASISCRSSQSLLHSTGYNYLDWYLQKPGQSPQLLIYLGSNRASGVPDRFSGSGSGTDFTLKFIRVEAEDVGVYYCMQALQTPYTFGQGTKLEIKR" valueobserved="7.38 nM"
binder="PR301803 (antibody, human IgG1, kappa, V domains shown, Mouse variable domains, expressed recombinantly with human IgG1 wildtype Fc; also called Series 5 mAb) VH: EVKLEESGGGLVQPGGSMKLSCVASGFTFNNYWMNWVRQSPEKGLEWVAEIRLKSNNYATHYAESLKGRFTISRDDSKSSVYLQMNNLRAEDTGIYYCTVGTLVYWGQGTLVTVSA VL: DIVLTQSPASLVVSLGQRATISCRASQSVSTSTYNYMHWYQQKPGQPPKLLIKFASNLESGVPARFSGSGSGTDFTLNIHPVEEEDTATFYCQHSWEIPYTFGGGTKLEIKR" valueobserved="1.04 nM"
binder="PR301788 (antibody, human IgG1, kappa, V domains shown, Mouse variable domains, expressed recombinantly with human IgG1 wildtype Fc; also called Series 5 mAb) VH: EMKLEESGGGLVQPGGSMKLSCVASGFTFSNYWMNWVRQSPEKGLEWVAEIRLKSNNYATHYAESVKGRFTISRDDSKSSVYLQMNNLRAEDTGIYYCTIGTLVYWGQGTLVTVSA VL: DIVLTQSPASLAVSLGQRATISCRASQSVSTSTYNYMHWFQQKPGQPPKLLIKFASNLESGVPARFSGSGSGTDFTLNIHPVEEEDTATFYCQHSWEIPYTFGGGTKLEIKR" valueobserved="0.46 nM"
